- assay_remarks: gradient 5% acetonitrile 3 min, to 50% in 2 min, to 85% in 15 min, held 3 min, 100 µL/min
- measurement_setup: column: Zorbax Extend-C18 2.1 x 50 mm; eluents: water / acetonitrile, 0.1% formic acid
readout_type: RP-LC retention time (s)

> print(dat)
                                   compound          readout.type  reading
1  NS(=O)(=O)c1ccc(CCNS(=O)(=O)c2ccccc2-c2nc(-c3ccccc3)no2)cc1  RP-LC retention time      886
2  C=CCNC(=O)NC1CCN(C2=NS(=O)(=O)C(c3ccc(C)cc3)=C2C)CC1  RP-LC retention time      736
3  COc1cc(NC(=O)c2c(C)oc3nc(C)nc(N4CCOCC4)c23)cc(OC)c1  RP-LC retention time      804
4  Cc1sc(NC(=O)c2ccncc2)nc1-c1ccc2c(c1)NC(=O)C(C)O2 (stereo not given)  RP-LC retention time      714
5  COc1ccc(Cl)cc1NC(=O)c1c(C)oc2c1C1=NCCN1C=N2  RP-LC retention time      674
